Task for the reader: assign each of the following molecules its reported IC50.
Biological target: Kv1.3 potassium channel (Homo sapiens (Human))
Sequence (P22001 whole entry): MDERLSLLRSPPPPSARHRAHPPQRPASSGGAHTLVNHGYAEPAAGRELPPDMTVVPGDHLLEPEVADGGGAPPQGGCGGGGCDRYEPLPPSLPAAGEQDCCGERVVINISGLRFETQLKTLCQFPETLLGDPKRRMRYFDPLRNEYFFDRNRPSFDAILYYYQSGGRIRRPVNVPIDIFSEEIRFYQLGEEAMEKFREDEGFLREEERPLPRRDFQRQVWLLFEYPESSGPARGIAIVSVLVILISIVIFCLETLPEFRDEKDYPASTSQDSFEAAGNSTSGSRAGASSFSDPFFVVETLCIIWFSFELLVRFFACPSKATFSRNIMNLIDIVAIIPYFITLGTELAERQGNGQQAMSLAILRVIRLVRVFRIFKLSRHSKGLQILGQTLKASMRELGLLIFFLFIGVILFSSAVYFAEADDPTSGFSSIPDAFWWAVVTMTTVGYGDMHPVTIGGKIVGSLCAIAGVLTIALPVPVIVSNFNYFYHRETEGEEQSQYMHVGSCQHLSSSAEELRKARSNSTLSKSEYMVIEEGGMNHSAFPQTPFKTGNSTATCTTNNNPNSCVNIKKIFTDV
Test: Kv1.3 potassium channel blocker activity, automated whole-cell patch clamp in CHO-K1 cells stably expressing Kv1.3
Type: cell-based
Conditions: Patchliner patch clamp
Method: Example 21. Evaluation of Kv1.3 Potassium Channel Blocker Activities This assay is used to evaluate the disclosed compounds' activities as Kv1.3 potassium channel blockers. CHO-K1 cells stably expressing Kv1.3 were grown in DMEM containing 10% heat-inactivated FBS, 1 mM sodium pyruvate, 2 mM L-glutamine, and G418 (500 μg/ml). Cells were grown in culture flasks at 37° C. in a 5% C02-humidified incubator. […]

Consider the molecule `O=C(C[C@H]1CN[C@@H](c2c(O)ccc(Cl)c2Cl)C1)N1CC(O)(CO)C1` . State its measured IC50.
< 100 nM

Consider the molecule `NC(=O)C[C@@H]1CC[C@H](c2c(O)ccc(Cl)c2Cl)N1` . State its measured IC50.
< 1000 nM

Consider the molecule `CC1(CO)CN(C(=O)C[C@H]2CN[C@@H](c3c(O)ccc(Cl)c3Cl)C2)C1` . State its measured IC50.
< 1000 nM

Consider the molecule `O=C(C[C@H]1CN[C@@H](c2c(O)ccc(Cl)c2Cl)C1)N1CCC(O)CC1` . State its measured IC50.
< 1000 nM

Consider the molecule `C[C@H](CO)NC(=O)C[C@H]1CN[C@@H](c2c(O)ccc(Cl)c2Cl)C1` . State its measured IC50.
< 100 nM

Consider the molecule CC[C@H](C(N)=O)[C@@H]1CN[C@@H](c2c(O)ccc(Cl)c2Cl)C1 (single isomer, unassigned) . State its measured IC50.
< 1000 nM

Consider the molecule `CC1(O)CN(C(=O)C[C@H]2CN[C@@H](c3c(O)ccc(Cl)c3Cl)C2)C1` . State its measured IC50.
< 100 nM

Consider the molecule `CC(C)(C(N)=O)[C@@H]1CN[C@@H](c2c(O)ccc(Cl)c2Cl)C1` . State its measured IC50.
< 1000 nM
